- Test system: SF-268 CNS
- Measurement protocol: NCI tumour cell line growth inhibition, 48 h
Property: TGI

Sample records with TGI:
- Compound: "OCC(O)COCn1cc(Cn2ncc3c(NCc4ccccc4)ncnc32)nn1 (stereo not given)"
  TGI: "32.8 µM"
- Compound: "COc1ccc2nc3cc([N+](=O)[O-])ccc3c(Nc3ccc(S(=O)(=O)Nc4ncccn4)cc3)c2c1"
  TGI: "> 100 µM"
- Compound: "Cc1ccc2[nH]c(O)c(N=Nc3ccccc3[N+](=O)[O-])c2c1"
  TGI: "> 29.4 µM"
- Compound: "[N-]=[N+]=Nc1c(-c2ccccc2)c(=O)n(-c2ccccc2)c2ccccc12"
  TGI: "62.3 µM"
- Compound: "CC(C)=NOC(=O)OC[C@H]1O[C@@H](n2cnc3c(N)ncnc32)C(O)C1O (stereo not given in full)"
  TGI: "> 100 µM"
- Compound: "COCN1C(=N)C(C(=O)OC(C)(C)C)=C2C=C(O)C=CC21C (stereo not given)"
  TGI: "29.5 µM"

Measured TGI, `NNc1nc2ccccc2o1` : > 100 µM

Value of TGI reported for the compound `CN(C)CCN(C)C(=O)c1cccc2cccc(C(=O)O)c12` is > 100 µM

Consider `Nc1ncnc2c1ncn2[C@@H]1O[C@H](COP(=O)(O)OP(=O)(O)OC[C@H]2O[C@@H](OCCCO)[C@H](O)[C@@H]2O)[C@@H](O)[C@H]1O` . Its measured TGI is > 100 µM

TGI in this record for Cc1ccc(N=C2OP(=O)(Nc3ccc(C)cc3)Oc3ccccc32)cc1 (stereo not given) : > 100 µM

* * *

- Test system: CCRF-CEM leukemia
- Measurement protocol: NCI tumour cell line growth inhibition, 48 h
The reader will find reported TGI values listed item by item below.

Here are 2 compounds together with their reported answers.
- Compound: "Cc1[nH]c2ccccc2c1C1=NO/C(=N\\O)C(c2c(C)[nH]c3ccccc23)C1 (stereo not given)"
  Property: "TGI"
  Result: "> 100 µM"
- Compound: "CCN1C(=O)N(CC)C2C1NN=c1s/c(=C\\c3ccc(C(F)(F)F)cc3)c(=O)n12 (stereo not given)"
  Property: "TGI"
  Result: "17 µM"

Recorded result, `CN(CCNC(=O)c1nn(-c2ccc(Cl)cc2Cl)c2c1Cc1ccccc1-2)CCNC(=O)c1nn(-c2ccc(Cl)cc2Cl)c2c1Cc1ccccc1-2` , TGI: 7.82 µM

Measured TGI of `CCCS(=O)(=O)Nc1cccc(Nc2ncnc3cc(NC(=O)CCl)ccc23)c1Cl` : 4.68 µM

The measured TGI associated with `COc1ccc([Se][Se]c2ccc(OC)cc2OC)c(OC)c1` reads 5.29 µM

Briefly, TGI measured for `COc1ccccc1/C=N/Nc1nnc2c3ccccc3c3ncccc3c2n1` : 78 µM

Input `COc1ccccc1NC(=O)CC(=O)n1nc(C)c(N=Nc2ccccc2Cl)c1C` . Output TGI: > 100 µM

Record `COc1ccc(C(=O)CCN(C)C)c2ccccc12` . Reported TGI: 11.8 µM

The measured TGI associated with FC(F)(F)c1cc(NC(=S)N2c3ccccc3-n3cccc3C2c2cccnc2)cc(C(F)(F)F)c1 (stereo not given) reads 33.7 µM

TGI in this record for `CCOC(=O)[C@@H](NC(=O)OC(C)(C)C)[C@@H](O)C(=O)OCC` : > 100 µM
